# Substrate: p-NP-C4
# conditionParameters: pH 7.1; 25 °C
For each of the proteins below, state its kcat.

Examples from the recorded data:
protein	result
unnamed (protein) MKPENKLPVLDLISAEMKTVVNTLQPDLPPWPATGTIAEQRQYYTLERRFWNAGAPEMATRAYMVPTKYGQVETRLFCPQPDSPATLFYLHGGGFILGNLDTHDRIMRLLASYSQCTVIGIDYTLSPEARFPQAIEEIVAACCYFHQQAEDYQINMSRIGFAGASAGAMLALASALWLRDKQIDCGKVAGVLLWYGLYGLRDSVTRRLLGGVWDGLTQQDLQMYEEAYLSNDADRESPYYCLFNNDLTREVPPCFIAGAEFDPLLDDSRLLYQTLAAHQQPCEFKLYPGTLHAFLHYSRMMKTADEALRDGAQFFTAQL	0.007 s⁻¹
unnamed (protein) MKPENKLPVLDLISAEMKTVVNTLQPDLPPWPATGTIAEQRQYYTLERRFWNAGAPEMATRAYMVPTKYGQVETRLFCPQPDSPATLFYLHGGGFILGNLDTHDRIMRLLASYSQCTVIGIDYTLSPEARFPQAIEEIVAACCYFHQQAEDYQINMSRIGFAGDSAGAMLALASALWLRDKQIDCGKVAGVLLWYGLYGLRDSVTRRLLGGVWDGLTQQDLQMYEEAYLSNDADRESPYYCLFNNDLTREVPPCFIAGAEFAPLLDDSRLLYQTLAAHQQPCEFKLYPGTLHAFLHYSRMMKTADEALRDGAQFFTAQL	0.034 s⁻¹
unnamed (protein) MKPENKLPVLDLISAEMKTVVNTLQPDLPPWPATGTIAEQRQYYTLERRFWNAGAPEMATRAYMVPTKYGQVETRLFCPQPDSPATLFYLHGGGFILGNLDTHDRIMRLLASYSQCTVIGIDYTLSPEARFPQAIEEIVAACCYFHQQAEDYQINMSRIGFAGDSAAAMLALASALWLRDKQIDCGKVAGVLLWYGLYGLRDSVTRRLLGGVWDGLTQQDLQMYEEAYLSNDADRESPYYCLFNNDLTREVPPCFIAGAEFDPLLDDSRLLYQTLAAHQQPCEFKLYPGTLHAFLHYSRMMKTADEALRDGAQFFTAQL	49.4 s⁻¹

Now, please, on to the next protein.
Value of measured kcat for the entry unnamed (protein) MKPENKLPVLDLISAEMKTVVNTLQPDLPPWPATGTIAEQRQYYTLERRFWNAGAPEMATRAYMVPTKYGQVETRLFCPQPDSPATLFYLHGGGFILGNLDTHDRIMRLLASYSQCTVIGIDYTLSPEARFPQAIEEIVAACCYFHQQAEDYQINMSRIGFAGDSAGAMLALASALWLRDKQIDCGKVAGVLLWYGLYGLRDSVTRRLLGGVWDGLTQQDLQMYEEAYLSNDADRESPYYCLFNNDLTREVPPCFIAGAEFDPLLADSRLLYQTLAAHQQPCEFKLYPGTLHAFLHYSRMMKTADEALRDGAQFFTAQL : 3.4 s⁻¹

Where do the numbers come from? From the PETadex activity labels (doi:10.1016/s0014-5793(99)00813-3).
